Biological target: human full-length MKNK1 (Homo sapiens, UniProt Q9BUB5, T385D)
Construct: GST (N); purchased Carna Biosciences 02-145; host or cells: insect cells (baculovirus expression system)
Sequence (Q9BUB5 1-424 isoform Q9BUB5-2 T344D): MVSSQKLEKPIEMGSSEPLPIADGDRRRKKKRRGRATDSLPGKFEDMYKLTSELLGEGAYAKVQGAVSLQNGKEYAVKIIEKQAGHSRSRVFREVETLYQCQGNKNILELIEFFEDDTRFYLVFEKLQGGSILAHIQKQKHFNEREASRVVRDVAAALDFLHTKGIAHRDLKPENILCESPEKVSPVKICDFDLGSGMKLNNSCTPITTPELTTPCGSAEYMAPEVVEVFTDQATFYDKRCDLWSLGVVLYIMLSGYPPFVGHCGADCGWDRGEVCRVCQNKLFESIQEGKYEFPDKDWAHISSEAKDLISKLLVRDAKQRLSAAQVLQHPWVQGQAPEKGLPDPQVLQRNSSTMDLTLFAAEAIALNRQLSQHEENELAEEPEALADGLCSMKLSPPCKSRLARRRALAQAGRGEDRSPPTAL
Assay: MKNK1 kinase high ATP assay (TR-FRET)
Assay type: biochemical
Conditions: 2 mM ATP, after preincubation with MKNK1; read-out: MKNK1 IC50 (MKNK1 high ATP)
Method: MKNK1-inhibitory activity at high ATP of compounds of the present invention after their preincubation with MKNK1 was quantified employing the TR-FRET-based MKNK1 high ATP assay as described in the following paragraphs. As substrate for the kinase reaction the biotinylated peptide biotin-Ahx-[…] (C-terminus in amide form) was used, which can be purchased e.g. from the company Biosyntan (Berlin-Buch, Germany). […]

compound	IC50
CCOc1cc2[nH]ncc2cc1Nc1ncnc2sc3c(c12)CCC(C(=O)N1CCC1)C3 (racemic) [Example 223]	1.5 nM
CCN(CC)C(=O)C1CCc2c(sc3ncnc(Nc4ccc5[nH]ncc5c4)c23)C1 (racemic) [Example 83]	14.7 nM
CC(C)Oc1cc2[nH]ncc2cc1Nc1ncnc2sc3c(c12)CCC(C(=O)N(C)CC1CC1)C3 (racemic) [Example 220]	0.6 nM
Cn1cc(NC(=O)C2CCc3c(sc4ncnc(Nc5ccc6[nH]ncc6c5)c34)C2)cn1 (racemic) [Example 146]	26.4 nM
